As shown below, each of these binders has a reported pEC50 value.
assay.target: T1, cynomolgus CD3 (cynomolgus (Macaca fascicularis), UniProt Q95LI5 22-198; Q95LI8 22-171; Q95LI7 23-181)
T1 construct: whole, on cells; composition of the 'mix' not defined; also called cynoCD3
T1 sequence (Q95LI5 22-198, chain 1 of 3): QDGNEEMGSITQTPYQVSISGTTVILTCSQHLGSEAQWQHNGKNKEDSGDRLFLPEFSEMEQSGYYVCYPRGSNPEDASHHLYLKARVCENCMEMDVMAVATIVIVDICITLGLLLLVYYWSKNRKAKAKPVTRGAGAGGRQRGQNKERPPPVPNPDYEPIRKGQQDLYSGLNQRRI
T1 sequence (Q95LI8 22-171, chain 2 of 3): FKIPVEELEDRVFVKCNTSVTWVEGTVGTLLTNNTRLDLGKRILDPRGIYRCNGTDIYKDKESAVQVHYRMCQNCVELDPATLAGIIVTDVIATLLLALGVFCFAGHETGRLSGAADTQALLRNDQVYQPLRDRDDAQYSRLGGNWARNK
T1 sequence (Q95LI7 23-181, chain 3 of 3): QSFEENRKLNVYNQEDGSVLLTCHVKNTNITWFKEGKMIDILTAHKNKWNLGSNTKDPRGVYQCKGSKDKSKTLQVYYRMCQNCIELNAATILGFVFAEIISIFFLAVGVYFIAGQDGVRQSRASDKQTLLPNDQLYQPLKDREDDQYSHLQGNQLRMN
measurement.protocol: FACS on 293T-cynoCD3mix cells
pEC50: −log10 of the molar value.
measured.quantity: pEC50

1) ch147E11E2 (antibody, V domains shown) VH: QVQLQQPGTELVKPGTSVKLSCKASGYTFTSYWMHWVKQRPGQGLEWIGNINPSNGATNYNEKFKSKATLTVDKSSSTAYMQLSSLTSEDSAVYYCARDRSSQYYFDYWGQGTTLTVSS VL: DIVMSQSPSSLAVSAGEKVTMSCKSSQSLLNSRSRKNYLAWYQQKPGQSPKLLIYWASTRESGVPDRFTGSGSGTDFTLTISSVQAEDLAVYYCTQSYTLRTFGGGTKLEIK
8.66
2) ch127E2D3 (antibody, V domains shown) VH: QVQLQQPGTELVKPGASVKLSCKASGYTFTSYWMHWVKQRPGEGLEWIGNIYPGSSSINYNEKFKSKATLTVDKSSSTAYMQLSSLTSEDSAVYYCARDRSSQYYFDYWGQGTTLTVSS VL: DIVMSQSPSSLAVSAGEKVTMSCKSSQSLLNSRTRKNYLAWYQQKPGQSPKLLIYWASTRESGVPDRFTGSGSGTDFTLTISSVQAEDLAVYYCTQSYNLRTFGGGTKLEIK
8.63
3) ch133B4C7 (antibody, V domains shown) VH: QVQLQQPGTELVKPGASVKLSCKASGYTFTSYWMHWVKQRPGQGLEWIGNINPSNGDTNFNEKFKSKATLTVDKSSSTAYMQLSSLTSEDSAVYYCARDRSSQYYFDYWGQGTTLTVSS VL: DIVMSQSPSSLAVSAGEKVTMSCNSSQSLLNSRTRKNYLAWYQQKPGQSPKLLIYWASTRESGVPDRFTGSGSGTDFTLTISSVQAEDLAVYYCKQSYTLRTFGGGTKLEIK
8.55

// data source = patent US20250223358A1
